System: 388556-164-R-J1-PDC complex spheroid viability;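 note: spheroids exposed to compound for 7 days before readout; 100% = DMSO vehicle control luminescence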
method: Anticancer human tumor 388556-164-R-J1-PDC patient-derived colon adenocarcinoma cell line growth inhibition [RAS]
measurement_setup: second compound 0.003 µM; first compound 0.00316 µM; hits give low values
recorded_endpoint: viability, T/C (%)
Your answer is read as %, so omit the unit and give the number.

Solved entries (count: 5):
C=CC(=O)Nc1cc(Nc2nccc(-c3cn(C)c4ccccc34)n2)c(OC)cc1N(C)CCN(C)C + CCn1c(-c2cc(N3CCN(C)CC3)cnc2C(C)OC)c2c3cc(ccc31)-c1csc(n1)CC(NC(=O)C1CC1C)C(=O)N1CCCC(N1)C(=O)OCC(C)(C)C2    91.7
O=C(c1ccc(F)c(F)c1Nc1ccc(I)cc1F)N1CC(O)([C@@H]2CCCCN2)C1 + CCn1c(-c2cc(N3CCN(C)CC3)cnc2C(C)OC)c2c3cc(ccc31)-c1csc(n1)CC(NC(=O)C1CC1C)C(=O)N1CCCC(N1)C(=O)OCC(C)(C)C2    97.5
CC(C)n1nc(-c2ccc3oc(N)nc3c2)c2c(N)ncnc21 + CCn1c(-c2cc(N3CCN(C)CC3)cnc2C(C)OC)c2c3cc(ccc31)-c1csc(n1)CC(NC(=O)C1CC1C)C(=O)N1CCCC(N1)C(=O)OCC(C)(C)C2    72.2
C=CC(=O)N1CCN(c2nc(OCC3CCCN3C)nc3c(F)c(-c4nc(N)cc(C)c4C(F)(F)F)c(Cl)cc23)C(C)C1 (stereo unspecified) + CCn1c(-c2cc(N3CCN(C)CC3)cnc2C(C)OC)c2c3cc(ccc31)-c1csc(n1)CC(NC(=O)C1CC1C)C(=O)N1CCCC(N1)C(=O)OCC(C)(C)C2    94.8
CC(C)n1nc(-c2ccc3oc(N)nc3c2)c2c(N)ncnc21 + CCn1c(-c2cccnc2C(C)OC)c2c3cc(ccc31)N1CCOC(CC(NC(=O)C(C(C)C)N(C)C(=O)C3(F)CCN(C(=O)C#CC(C)(C)N(C)C)CC3)C(=O)N3CCCC(N3)C(=O)OCC(C)(C)C2)C1    86.7

Proceeding to the next compound to report its viability, T/C.
Exam item: I'd like to know its viability, T/C. The compound in question is Nc1ccn(C2OC(CO)C(O)C2(F)F)c(=O)n1 (stereo unspecified) + CCn1c(-c2cc(N3CCN(C)CC3)cnc2C(C)OC)c2c3cc(ccc31)-c1csc(n1)CC(NC(=O)C1CC1C)C(=O)N1CCCC(N1)C(=O)OCC(C)(C)C2
Marked response: 101
